Ref: PubChem BioAssay AID2060490

Tested on: 885512-296-R-J2-PDC complex spheroid viability
runDescription: Anticancer human tumor 885512-296-R-J2-PDC patient-derived breast carcinoma cell line growth inhibition [GQUAD]; active means viability on the fitted dose curve at most 10% of control; inactive means the rest
condition: second compound 1 µM; first compound 0.0316 µM
Classes used: class 1 (active), class 0 (inactive)

INSERT INTO measurements (compound, qualitativelabel) VALUES
  ('CC1COCCN1c1cc(C2(O)CC3CCC(C2)O3)c2cnn(-c3ccn[nH]3)c2n1 (stereo unspecified) + Cc1[nH]c2ccc(F)cc2c1-c1nc2c3cccnc3c3ncccc3c2[nH]1', 'class 1'),
  ('O=C(c1cc(Cc2n[nH]c(=O)c3ccccc23)ccc1F)N1CCN(C(=O)C2CC2)CC1 + Cc1cnc(CNC(=O)c2c(=O)c3ccc(N4CCCN(C)CC4)nc3n3c2sc2ccccc23)cn1', 'class 0'),
  ('CCc1c2c(nc3ccc(O)cc13)-c1cc3c(c(=O)n1C2)COC(=O)[C@]3(O)CC + Cc1cnc(CNC(=O)c2c(=O)c3ccc(N4CCCN(C)CC4)nc3n3c2sc2ccccc23)cn1', 'class 1'),
  ('COc1cc(C2c3cc4c(cc3C(OC3OC5COC(C)OC5C(O)C3O)C3COC(=O)C23)OCO4)cc(OC)c1O (stereo unspecified) + Cc1cnc(CNC(=O)c2c(=O)c3ccc(N4CCCN(C)CC4)nc3n3c2sc2ccccc23)cn1', 'class 0'),
  ('CC(C)n1c(=O)n(C)c2cnc3cc(F)c(-c4ccc(OCCCN5CCCCC5)nc4)cc3c21 + CN(C)c1ccc(Nc2c3ccc(NC(=O)CCN4CCCC4)cc3nc3cc(NC(=O)CCN4CCCC4)ccc23)cc1', 'class 0'),
  ('C=CC(=O)N1CCN(c2nc(=O)n(-c3c(C)ccnc3C(C)C)c3nc(-c4c(O)cccc4F)c(F)cc23)C(C)C1 (stereo unspecified) + CN(C)c1ccc(Nc2c3ccc(NC(=O)CCN4CCCC4)cc3nc3cc(NC(=O)CCN4CCCC4)ccc23)cc1', 'class 0'),
  ('Nc1ccn(C2OC(CO)C(O)C2(F)F)c(=O)n1 (stereo unspecified) + Cc1[nH]c2ccc(F)cc2c1-c1nc2c3cccnc3c3ncccc3c2[nH]1', 'class 1'),
  ('Cc1cccc(N(C)C(=O)C2C(O)CCN2c2nc(C)cc(C(F)(F)F)c2C#N)c1 (stereo unspecified) + Cc1cnc(CNC(=O)c2c(=O)c3ccc(N4CCCN(C)CC4)nc3n3c2sc2ccccc23)cn1', 'class 0'),
  ('Cc1cccc(N(C)C(=O)C2C(O)CCN2c2nc(C)cc(C(F)(F)F)c2C#N)c1 (stereo unspecified) + CN(C)c1ccc(Nc2c3ccc(NC(=O)CCN4CCCC4)cc3nc3cc(NC(=O)CCN4CCCC4)ccc23)cc1', 'class 0'),
  ('Cn1ncnc1[C@H]1c2n[nH]c(=O)c3cc(F)cc(c23)N[C@@H]1c1ccc(F)cc1 + Cc1cnc(CNC(=O)c2c(=O)c3ccc(N4CCCN(C)CC4)nc3n3c2sc2ccccc23)cn1', 'class 0'),
  ('CC(C)(O)C1CCC(Nc2ccc3ncc(-c4cccc(C(F)(F)F)c4)n3n2)CC1 (stereo unspecified) + Cc1cnc(CNC(=O)c2c(=O)c3ccc(N4CCCN(C)CC4)nc3n3c2sc2ccccc23)cn1', 'class 0');

###

System: 885512-296-R-J2-PDC complex spheroid viability
runDescription: Anticancer human tumor 885512-296-R-J2-PDC cell line growth inhibition [GQUAD]; active = viability on the fitted dose curve at most 10% of control; inactive = the rest;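 further: spheroids exposed to the compounds for one week; percent of tumor spheroid viability relative to DMSO vehicle control wells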
condition: second compound 3.16 µM; first compound 3.16 µM
Classes used: true (1) = active, false (0) = inactive

INSERT INTO results (compound, tgt, qualitativelabel) VALUES
  ('C=CC(=O)N1CCN(c2nc(=O)n(-c3c(C)ccnc3C(C)C)c3nc(-c4c(O)cccc4F)c(F)cc23)C(C)C1 (stereo not given) + Cc1cnc(CNC(=O)c2c(=O)c3ccc(N4CCCN(C)CC4)nc3n3c2sc2ccccc23)cn1', '885512-296-R-J2-PDC complex spheroid viability', 'false (0)'),
  ('O=C(NO)c1cnc(N2CCN(S(=O)(=O)c3ccc4ccccc4c3)CC2)nc1 + Cc1cnc(CNC(=O)c2c(=O)c3ccc(N4CCCN(C)CC4)nc3n3c2sc2ccccc23)cn1', '885512-296-R-J2-PDC complex spheroid viability', 'true (1)'),
  ('C=CCn1c(=O)c2cnc(Nc3ccc(N4CCN(C)CC4)cc3)nc2n1-c1cccc(C(C)(C)O)n1 + Cc1cnc(CNC(=O)c2c(=O)c3ccc(N4CCCN(C)CC4)nc3n3c2sc2ccccc23)cn1', '885512-296-R-J2-PDC complex spheroid viability', 'true (1)'),
  ('Nc1ccn(C2OC(CO)C(O)C2(F)F)c(=O)n1 (stereo not given) + Cc1[nH]c2ccc(F)cc2c1-c1nc2c3cccnc3c3ncccc3c2[nH]1', '885512-296-R-J2-PDC complex spheroid viability', 'true (1)'),
  ('C#Cc1c(F)ccc2cc(O)cc(-c3ncc4c(N5CC6CCC(C5)N6)nc(OCC56CCCN5CC(F)C6)nc4c3F)c12 (stereo not given) + Cc1cnc(CNC(=O)c2c(=O)c3ccc(N4CCCN(C)CC4)nc3n3c2sc2ccccc23)cn1', '885512-296-R-J2-PDC complex spheroid viability', 'false (0)');
